experiment: Nrf2 qHTS screen for inhibitors; settings: A549 ARE-Fluc reporter, luciferase luminescence, 18-24 h; series mostly up to 46 µM; further: nearly all actives have a fitted effect of over 60% in size
Hit rate of the full screen: of about 360,000 compounds, about 7,500 (2.1%) were called active. Roughly 20% stayed inconclusive and do not appear here. The call rests on the fitted dose curve; in most records, active means well fitted inhibition curve with a large enough effect; inconclusive means small, poorly fitted or top-dose-only effect, or effect the other way; inactive means flat fitted curve, though single readings scatter. Shown is part of a subset that was picked to be rich in actives.
Please answer using one outcome listed in active, inactive

Worked examples, 5 molecules total:
>  <MOLECULE>
CC(=O)c1cccc(NC(=O)c2nc(-c3ccccc3)n(-c3cccc(C)c3)n2)c1

>  <CATEGORY>
active

$$$$
>  <MOLECULE>
CC(C)Cn1c(=O)c2ccccc2n2c(-c3cccc(Cl)c3)nnc12

>  <CATEGORY>
inactive

$$$$
>  <MOLECULE>
Cc1oc(-c2ccccc2)nc1Cn1c(SCc2cccc(C(F)(F)F)c2)nc2cccnc21

>  <CATEGORY>
active

$$$$
>  <MOLECULE>
Cc1cccc(N2C(=O)c3ccc(C(=O)Nc4cccc(C(=O)O)c4)cc3C2=O)c1

>  <CATEGORY>
inactive

$$$$
>  <MOLECULE>
CC(C)OCCCNc1ncnc2c1[nH]c1ccc(F)cc12

>  <CATEGORY>
active

$$$$

Could you kindly confirm the outcome this assay logged for CC(=O)c1cccc(NC(=O)c2cc(C)nn2-c2ccccc2)c1 ?
inactive

Could you kindly confirm the outcome this assay logged for O=C(Nc1ccccc1C(=O)Nc1ccncc1)c1ccc([N+](=O)[O-])cc1 ?
inactive
